Origin of the recorded values: patent US20210309735A1

Readings of OD450 for the listed binders
# SUBJECT OF TEST: T1, human IL-17A (human, UniProt Q16552 20-155, limits assumed)
# T1 construct: Bought from R&D Systems; also called IL-17 antigen (human IL17A)
# T1 sequence (looked up): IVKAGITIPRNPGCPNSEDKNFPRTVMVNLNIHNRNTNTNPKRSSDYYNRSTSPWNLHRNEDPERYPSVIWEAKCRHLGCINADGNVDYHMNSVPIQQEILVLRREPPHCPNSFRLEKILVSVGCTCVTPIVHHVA
# EXPERIMENT: blocking ELISA, IL-17RA coated; antibody 1 ug/ml pre-mixed with human IL-17A 0.1 ug/ml; bound IL-17A detected
OUTCOME MEASURE: OD450

BINDER	OUTCOME MEASURE	RESULT
PP10767 (antibody, human IgG4 S228P, kappa, V domains shown, Humanized, human IgG4/kappa; also called VH6667/VL6666) VH: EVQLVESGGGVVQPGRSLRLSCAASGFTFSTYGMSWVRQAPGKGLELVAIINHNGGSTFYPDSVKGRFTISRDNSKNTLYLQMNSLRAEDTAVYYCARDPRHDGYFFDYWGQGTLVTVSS VL: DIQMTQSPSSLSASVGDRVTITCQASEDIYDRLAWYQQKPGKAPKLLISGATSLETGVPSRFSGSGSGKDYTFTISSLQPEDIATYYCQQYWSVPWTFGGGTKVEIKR	OD450	0.105 OD450
PP10764 (antibody, human IgG4 S228P, kappa, V domains shown, Humanized, human IgG4/kappa; also called VH6666/VL6666) VH: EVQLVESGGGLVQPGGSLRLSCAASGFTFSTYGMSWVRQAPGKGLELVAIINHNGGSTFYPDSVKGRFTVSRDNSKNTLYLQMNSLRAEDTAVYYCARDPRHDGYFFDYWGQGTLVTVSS VL: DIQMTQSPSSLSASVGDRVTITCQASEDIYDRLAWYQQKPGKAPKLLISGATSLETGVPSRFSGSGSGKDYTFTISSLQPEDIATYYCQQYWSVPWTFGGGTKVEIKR	OD450	0.126 OD450
PP10765 (antibody, human IgG4 S228P, kappa, V domains shown, Humanized, human IgG4/kappa; also called VH6666/VL6667) VH: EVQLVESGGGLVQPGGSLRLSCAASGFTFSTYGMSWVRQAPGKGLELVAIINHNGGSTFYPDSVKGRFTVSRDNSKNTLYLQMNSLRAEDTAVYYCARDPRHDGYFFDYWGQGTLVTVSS VL: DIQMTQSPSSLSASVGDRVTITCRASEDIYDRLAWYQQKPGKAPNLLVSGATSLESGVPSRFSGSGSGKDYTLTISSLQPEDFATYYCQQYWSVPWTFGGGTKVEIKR	OD450	0.213 OD450
